Taken from PubChem BioAssay AID1159580.

Test: chemical genetic growth profiling, strain panel (AID 1159580);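 note: tested at 20 µM; growth read once vehicle control cultures reached saturation at 30 °C; 1 = growth at the plate median or of vehicle wells; lower values mean less growth of the strain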
Conditions: S. cerevisiae deletion strains, growth OD, locus YJL115W, strain asf1, stronger effect = lower value
The whole screen tested about 5,500 compounds, of which about 2,000 (36%) were called active. Not shown: some 18% with an inconclusive outcome. The list shows a part of the results.
Threshold 1: normalized growth strictly smaller gives True, otherwise False.

Answered examples (2):
- CCN(Cc1ccncc1)C(=O)C(CO)c1ccccc1 (stereo not drawn): False
- CC(=O)[C@@]1(O)CCC2C3C[C@H](C)C4=CC(=O)C=CC4(C)[C@@]3(F)[C@@H](O)C[C@@]21C (stereo partly drawn): True

Please examine the following record next.
[in] # strict comparison: is reported normalized growth < 1? input = CC(C)c1c(O)c(-c2cc3c(c(C(C)C)c2O)CCC2C(C)(C)CCC[C@]32C)cc2c1CCC1C(C)(C)CCC[C@]21C (stereo partly drawn)
[out] True

====

I'd appreciate it if you could supply normalized growth values for the items below.
Test: chemical genetic growth profiling, strain panel (AID 1159580);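 note: tested at 20 µM; growth read once vehicle control cultures reached saturation at 30 °C; 1 = growth at the plate median or of vehicle wells; lower values mean less growth of the strain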
Settings: S. cerevisiae deletion strains, growth OD, locus YGL248W, strain PDE1, stronger effect = lower value
The whole screen tested about 5,500 compounds, of which about 2,000 (36%) were called active. Another 18% or so got no clear call; they are omitted. The list shows a part of the results.
One number for each entry.

Sample records with normalized growth:
* CCCCCCCCCCCC1=C(O)C(=O)C=C(O)C1=O | 0.92
* C[C@@H]1CC[C@@]2(NC1)O[C@H]1C[C@H]3C4CC=C5C[C@@H](O)CC[C@]5(C)C4CC[C@]3(C)C1[C@@H]2C (stereo partly drawn) | 0.0583
* CC1CC[C@@]2(OC1)O[C@H]1CC3C4CC[C@@H]5CC(=O)CC[C@]5(C)C4CC[C@]3(C)[C@H]1[C@@H]2C (stereo partly drawn) | 0.973
* C[C@@H]1CC[C@@]2(OC1)O[C@H]1CC3C4CC[C@H]5C[C@@H](O)CC[C@]5(C)C4CC[C@]3(C)[C@H]1[C@@H]2C (stereo partly drawn) | 0.988

Please report normalized growth for every entry that follows.
1. C[C@]12CCC3c4ccc(O)cc4CCC3C1CC[C@@H]2O (stereo partly drawn)
2. Cc1cc(OC(=O)c2c(C)cc(OC(=O)c3c(C)cc(O)cc3O)cc2O)cc(O)c1C(=O)O

[out]
0.981
1.04

Please report normalized growth for every entry that follows.
1. C[C@@H]1CC[C@@]2(OC1)OC1CC3C4CC=C5C[C@@H](O)CC[C@]5(C)C4CC[C@]3(C)C1[C@@H]2C (stereo partly drawn)
2. CC1CCC2(OC1)OC1CC3C4CC[C@H]5C[C@@H](O)CC[C@]5(C)C4CC(=O)[C@]3(C)C1C2C (stereo partly drawn)

[out]
1. 1.01
2. 1.02

====

Experiment: chemical genetic growth profiling, strain panel (AID 1159580);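 note: tested at 20 µM; growth read once vehicle control cultures reached saturation at 30 °C; 1 = growth at the plate median or of vehicle wells; lower values mean less growth of the strain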
Details: S. cerevisiae deletion strains, growth OD, locus YLR384C, strain iki3, stronger effect = lower value
In all, about 5,500 compounds went through this assay and about 2,000 (36%) were called active. Roughly 18% stayed inconclusive and do not appear here. This is one part of the list.
Threshold 1: normalized growth strictly smaller gives MET, otherwise NOT MET.

Answered examples (2):
• COc1c2ccoc2cc2oc(=O)ccc12 = MET
• CC(=O)OCC1=C(C(=O)O)N2C(=O)[C@@H](NC(=O)Cc3cccs3)[C@H]2SC1 = NOT MET

Please examine the following record next.
[in] # strict comparison: is reported normalized growth < 1? input = CN[C@@H]1[C@@H](O)C(OC2[C@@H](N)C[C@@H](N)[C@H](O[C@H]3O[C@H](C(C)O)[C@@H](O)[C@H](O)[C@H]3N)[C@H]2O)OC[C@]1(C)O (some centres not stated)
[out] MET
